Target: CCNE1 (Homo sapiens, UniProt P24864+P24941)
Construct: host or cells: HEK293
Assay: CCNE1 HIBIT PQ (protein quantification), degradation
Type: cell-based
Settings: Max = Maximum
metric: CCNE1 HIBIT PQ Max (%)

Some compounds with recorded CCNE1 HIBIT PQ Max (%):
compound: CC(C)Oc1c(-c2cn[nH]c2)ncn2nc(Nc3ccc(S(=O)(=O)c4cccc(N5CCCC6C5CN6c5ccc6c(c5)CN(C5CCC(=O)NC5=O)C6=O)c4)cc3F)nc12 (stereo not shown) [Compound 35]
metric: CCNE1 HIBIT PQ Max (%)
observed_result: 25
//
compound: CC(C)Oc1c(-c2cn[nH]c2)ncn2nc(Nc3ccc(S(=O)(=O)c4cccc(C[C@H]5C[C@@H](c6ccc7c(c6)CN(C6CCC(=O)NC6=O)C7=O)C5)c4)cc3F)nc12 (stereo partly shown) [Compound 29]
metric: CCNE1 HIBIT PQ Max (%)
observed_result: 78
//
compound: CC(C)Oc1c(-c2cn[nH]c2)ncn2nc(Nc3ccc(S(=O)(=O)N4CCCC(CN5CCN(c6ccc7c(N8CCC(=O)NC8=O)nn(C)c7c6)C(C)C5)C4)cc3F)nc12 (stereo not shown) [Compound 91]
metric: CCNE1 HIBIT PQ Max (%)
observed_result: 71
//
compound: CC(C)Oc1c(-c2cn[nH]c2)ncn2nc(Nc3ccc(S(=O)(=O)c4cccc(C(C)N5CCN(c6ccc7c(N8CCC(=O)NC8=O)nn(C)c7c6)CC5)c4)cc3F)nc12 (single isomer, unassigned) [Compound 98]
metric: CCNE1 HIBIT PQ Max (%)
observed_result: 67
//
compound: CC(C)Oc1c(-c2cn[nH]c2)ncn2nc(Nc3ccc(S(=O)(=O)c4cccc(CN5CCN(c6ccc7c(N8CCC(=O)NC8=O)nn(C)c7c6)CC5C)c4)cc3F)nc12 (racemic) [Compound 39]
metric: CCNE1 HIBIT PQ Max (%)
observed_result: 67
//
compound: CC(C)Oc1c(-c2cn[nH]c2)ncn2nc(Nc3ccc(S(=O)(=O)N(C)CCCN4CCN(c5ccc6c(c5)n(C)c(=O)n6C5CCC(=O)NC5=O)C[C@@H]4C)cc3F)nc12 (stereo partly shown) [Compound 62]
metric: CCNE1 HIBIT PQ Max (%)
observed_result: 65

[I] CC(C)Oc1c(-c2cn[nH]c2)ncn2nc(N[C@H]3CCN(S(=O)(=O)c4cccc(CN5CCN(c6ccc7c(N8CCC(=O)NC8=O)nn(C)c7c6)C(C)C5)c4)C[C@H]3C)nc12 (stereo partly shown) [Compound 49]
[II] CC(C)Oc1c(-c2cn[nH]c2)ncn2nc(Nc3ccc(S(=O)(=O)N4CCC[C@H](CN5CC[C@H](c6ccc7c(N8CCC(=O)NC8=O)nn(C)c7c6)CC5(C)C)C4)cc3F)nc12 (single isomer, unassigned) [Compound 104]
Which value of CCNE1 HIBIT PQ Max (%) is numerically greater: that of I or that of II ? Answer = label.
I
(I: 96%, II: 48%)
